# ASSAYED_TARGET: human muscarinic M2 receptor (Homo sapiens, UniProt P08172)
# EXPERIMENTAL_PROTOCOL: Alphascreen Surefire phospho-ERK1/2 functional assay, M2
# Type: cell-based
# CONDITION_CONTEXT: CHO cells stably expressing human M2, read-out: pEC50 M2 (converted)
MEASUREMENT_NAME: EC50

Use these answered entries as a reference point.
(Q) Determine its reported EC50: CCOC(=O)N1C2CCC1CC(N1CCC3(CC1)OC(=O)NC3C(C)C)C2 (single isomer, unassigned) [Example 2-17 Isomer 1]
(A) > 20 µM

(Q) Determine its reported EC50: CCOC(=O)N1C2CCCC1CC(N1CCC3(CC1)CNC(=O)C3)C2 (single isomer, unassigned) [Example 5-1 Isomer 1]
(A) 7.94 µM

(Q) Determine its reported EC50: CCCC1NC(=O)CC12CCN(C1CC3CCC(C1)N3C(=O)OCC)CC2 (single isomer, unassigned) [Example 2-9 Isomer 1]
(A) > 20 µM

(Q) Determine its reported EC50: CCOC(=O)N1C2CCC1CC(N1CCC3(CC1)OC(=O)NC3CC)C2 (single isomer, unassigned) [Example 2-16 Isomer 1]
(A) > 20 µM

# batch size: 2; output EC50 per entry
1. CCOC(=O)N1CC2CC(N3CCC4(CC3)CNC(=O)O4)CC1C2 (single isomer, unassigned) [Example 6-3 Isomer 2]
2. CCOC(=O)N1C2CCCC1CC(N1CCC3(CC1)CNC(=O)O3)C2 (single isomer, unassigned) [Example 5-4 Isomer 2]

(A)
1. 1.26 µM
2. > 20 µM

---

Kindly supply the reported EC50 values for the records listed here.
# ASSAYED_TARGET: human muscarinic M4 receptor (Homo sapiens, UniProt P08173)
# Construct: expressed in transfected cells
# EXPERIMENTAL_PROTOCOL: Alphascreen Surefire phospho-ERK1/2 functional assay, M4
# Format: cell-based
# CONDITION_CONTEXT: CHO cells stably expressing human M4, read-out: pEC50 M4 (converted)
One number for each entry, in nM.

(Q) State measured EC50 of the molecule CC#CCOC(=O)N1C2CCC1CC(N1CCC3(CC1)CNC(=O)C3)C2 (single isomer, unassigned) [Example 2-5 Isomer 1] with human muscarinic M4 receptor (Homo sapiens, UniProt P08173).
(A) 25.1

(Q) State measured EC50 of the molecule CCOC(=O)N1CC2CCC1CC2N1CCC2(CC1)CNC(=O)C2 (single isomer, unassigned) [Example 3-1 Isomer 2] with human muscarinic M4 receptor (Homo sapiens, UniProt P08173).
(A) 251

---
(Q) State measured EC50 of the molecule CCOC(=O)N1C2CCC1CC(N1CCC3(CC1)CC(=O)N(CC1CC1)C3)C2 (single isomer, unassigned) [Example 2-28 Isomer 2] with human muscarinic M4 receptor (Homo sapiens, UniProt P08173).
(A) 316

---

# ASSAYED_TARGET: human muscarinic M4 receptor (Homo sapiens)
# Construct: expressed in transfected cells
# Sequence (P08173 1-479): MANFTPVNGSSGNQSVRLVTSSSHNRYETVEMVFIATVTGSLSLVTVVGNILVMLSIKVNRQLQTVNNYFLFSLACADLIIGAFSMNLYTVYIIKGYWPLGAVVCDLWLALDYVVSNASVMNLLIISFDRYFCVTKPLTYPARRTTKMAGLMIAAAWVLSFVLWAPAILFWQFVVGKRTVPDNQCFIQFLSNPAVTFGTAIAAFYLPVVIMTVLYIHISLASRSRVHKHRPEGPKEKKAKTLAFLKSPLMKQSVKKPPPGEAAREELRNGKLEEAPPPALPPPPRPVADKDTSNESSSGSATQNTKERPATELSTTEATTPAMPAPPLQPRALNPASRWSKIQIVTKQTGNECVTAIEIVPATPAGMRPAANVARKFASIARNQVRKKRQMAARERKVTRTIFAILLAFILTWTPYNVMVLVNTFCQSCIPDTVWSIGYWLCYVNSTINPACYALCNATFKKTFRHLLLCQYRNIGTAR
# EXPERIMENTAL_PROTOCOL: Alphascreen Surefire phospho-ERK1/2 functional assay, M4
# Type: cell-based
# CONDITION_CONTEXT: CHO, read-out: % Emax cf. ACh, M4, CHO cells stably expressing human M4, relative to ACh
Label rule, in plain words: Emax of 40% and up is TRUE, under 40% is FALSE.

Worked examples follow.
(Q) Emax >= 40% for CCOC(=O)N1[C@@H]2CC[C@H]1CC(N1CCC3(CC1)OC(=O)NC3Cc1ccccn1)C2 (mixture of isomers) [Example 2-23] ?
(A) FALSE

(Q) Emax >= 40% for CCOC(=O)N1CC2CCC1CC2N1CCC2(CC1)CNC(=O)O2 (single isomer, unassigned) [Example 3-2 Isomer 1] ?
(A) FALSE

(Q) Emax >= 40% for CCCC1NC(=O)CC12CCN(C1CC3CCC(C1)N3C(=O)OCC)CC2 (single isomer, unassigned) [Example 2-9 Isomer 1] ?
(A) TRUE

(Q) Emax >= 40% for [2H]C([2H])(C)OC(=O)N1C2CCC1CC(N1CCC3(CC1)CNC(=O)C3)C2 (single isomer, unassigned) [Example 2-30 Isomer 1] ?
(A) TRUE

(Q) Emax >= 40% for CCOC(=O)N1C2CCC1C(F)C(N1CCC3(CC1)CNC(=O)C3)C2 (single isomer, unassigned) [Example 2-11 Isomer 1] ?
(A) TRUE

---
(Q) Emax >= 40% for CC#CCOC(=O)N1[C@@H]2CCC[C@H]1CC(N1CCC3(CC1)CNC(=O)C3)C2 (mixture of isomers) [Example 5-3] ?
(A) FALSE

(Q) Emax >= 40% for CCOC(=O)N1CC2CCC(C1)C2N1CCC2(CC1)CNC(=O)C2 (single isomer, unassigned) [Example 4-1 Isomer 2] ?
(A) FALSE

(Q) Emax >= 40% for CCOC(=O)N1C2CCC1CC(N1CCC3(CC1)CC(=O)N(CC)C3)C2 (single isomer, unassigned) [Example 2-13 Isomer 2] ?
(A) TRUE

(Q) Emax >= 40% for CCCN1CC2(CCN(C3CC4CCC(C3)N4C(=O)OCC)CC2)CC1=O (single isomer, unassigned) [Example 2-25 Isomer 2] ?
(A) FALSE

(Q) Emax >= 40% for CCOC(=O)N1C2CCC1CC(N1CCC3(CC1)OC(=O)NC3(C)C)C2 (single isomer, unassigned) [Example 2-18 Isomer 1] ?
(A) FALSE

(Q) Emax >= 40% for CCSC(=O)N1C2CCC1CC(N1CCC3(CC1)CNC(=O)C3)C2 (single isomer, unassigned) [Example 2-35 Isomer 1] ?
(A) FALSE

(Q) Emax >= 40% for CSC(=O)N1C2CCC1CC(N1CCC3(CC1)CNC(=O)C3)C2 (single isomer, unassigned) [Example 2-34 Isomer 1] ?
(A) FALSE

(Q) Emax >= 40% for CCOC(=O)N1C2CCC1CC(N1CCC3(CC1)CC(=O)N(CC(C)C)C3)C2 (single isomer, unassigned) [Example 2-27 Isomer 2] ?
(A) FALSE

(Q) Emax >= 40% for CCOC(=O)N1C2CCC1C(F)C(N1CCC3(CC1)CNC(=O)O3)C2 (single isomer, unassigned) [Example 2-19 Isomer 2] ?
(A) TRUE

(Q) Emax >= 40% for COC(=O)N1C2CCC1CC(N1CCC3(CC1)CNC(=O)C3)C2 (single isomer, unassigned) [Example 2-1 Isomer 2] ?
(A) FALSE

---

# ASSAYED_TARGET: human muscarinic M2 receptor (Homo sapiens, UniProt P08172)
# Sequence (P08172 1-466): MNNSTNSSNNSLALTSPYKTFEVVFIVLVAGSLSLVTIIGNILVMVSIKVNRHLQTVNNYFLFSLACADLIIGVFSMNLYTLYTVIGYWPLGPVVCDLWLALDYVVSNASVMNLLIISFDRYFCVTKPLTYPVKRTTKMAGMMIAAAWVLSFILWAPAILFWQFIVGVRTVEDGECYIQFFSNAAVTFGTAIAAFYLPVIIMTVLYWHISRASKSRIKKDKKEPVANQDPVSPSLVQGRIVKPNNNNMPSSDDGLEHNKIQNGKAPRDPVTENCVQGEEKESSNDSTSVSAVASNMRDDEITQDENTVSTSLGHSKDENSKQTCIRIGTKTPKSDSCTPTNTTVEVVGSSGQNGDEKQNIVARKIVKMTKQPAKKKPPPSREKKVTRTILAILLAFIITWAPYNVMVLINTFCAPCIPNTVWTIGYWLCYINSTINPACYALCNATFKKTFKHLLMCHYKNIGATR
# EXPERIMENTAL_PROTOCOL: Alphascreen Surefire phospho-ERK1/2 functional assay, M2
# Format: cell-based
# CONDITION_CONTEXT: CHO cells stably expressing human M2, relative to ACh
Kindly supply the reported % Emax cf. ACh, M2 values for the records listed here.
Give bare numbers, in %.

Use these answered entries as a reference point.
(Q) Determine its reported % Emax cf. ACh, M2: CCOC(=O)N1C2CCC1CC(N1CCC3(CC1)CNC(=O)C3)C2 (single isomer, unassigned) [Example 2-2 Isomer 1]
(A) 0

(Q) Determine its reported % Emax cf. ACh, M2: C#CCOC(=O)N1C2CCCC1CC(N1CCC3(CC1)CNC(=O)C3)C2 (single isomer, unassigned) [Example 5-2 Isomer 2]
(A) 3

(Q) Determine its reported % Emax cf. ACh, M2: CCOC(=O)N1C2CCC1CC(N1CCC3(CC1)CC(=O)NC3CC)C2 (single isomer, unassigned) [Example 2-8 Isomer 2]
(A) 6

(Q) Determine its reported % Emax cf. ACh, M2: CCOC(=O)N1C2CCC1CC(N1CCC3(CC1)OC(=O)NC3C(C)C)C2 (single isomer, unassigned) [Example 2-17 Isomer 2]
(A) 3

(Q) Determine its reported % Emax cf. ACh, M2: CCOC(=O)N1C2CCCC1CC(N1CCC3(CC1)CNC(=O)C3)C2 (single isomer, unassigned) [Example 5-1 Isomer 2]
(A) 14

Could you now consider this next molecule?
(Q) Determine its reported % Emax cf. ACh, M2: [2H]C([2H])([2H])C([2H])([2H])OC(=O)N1C2CCC1CC(N1CCC3(CC1)CNC(=O)C3)C2 (single isomer, unassigned) [Example 2-32 Isomer 2]
(A) 15
